# tested-system: Androgen receptor (Homo sapiens, UniProt P10275)
# Sequence (P10275 whole entry): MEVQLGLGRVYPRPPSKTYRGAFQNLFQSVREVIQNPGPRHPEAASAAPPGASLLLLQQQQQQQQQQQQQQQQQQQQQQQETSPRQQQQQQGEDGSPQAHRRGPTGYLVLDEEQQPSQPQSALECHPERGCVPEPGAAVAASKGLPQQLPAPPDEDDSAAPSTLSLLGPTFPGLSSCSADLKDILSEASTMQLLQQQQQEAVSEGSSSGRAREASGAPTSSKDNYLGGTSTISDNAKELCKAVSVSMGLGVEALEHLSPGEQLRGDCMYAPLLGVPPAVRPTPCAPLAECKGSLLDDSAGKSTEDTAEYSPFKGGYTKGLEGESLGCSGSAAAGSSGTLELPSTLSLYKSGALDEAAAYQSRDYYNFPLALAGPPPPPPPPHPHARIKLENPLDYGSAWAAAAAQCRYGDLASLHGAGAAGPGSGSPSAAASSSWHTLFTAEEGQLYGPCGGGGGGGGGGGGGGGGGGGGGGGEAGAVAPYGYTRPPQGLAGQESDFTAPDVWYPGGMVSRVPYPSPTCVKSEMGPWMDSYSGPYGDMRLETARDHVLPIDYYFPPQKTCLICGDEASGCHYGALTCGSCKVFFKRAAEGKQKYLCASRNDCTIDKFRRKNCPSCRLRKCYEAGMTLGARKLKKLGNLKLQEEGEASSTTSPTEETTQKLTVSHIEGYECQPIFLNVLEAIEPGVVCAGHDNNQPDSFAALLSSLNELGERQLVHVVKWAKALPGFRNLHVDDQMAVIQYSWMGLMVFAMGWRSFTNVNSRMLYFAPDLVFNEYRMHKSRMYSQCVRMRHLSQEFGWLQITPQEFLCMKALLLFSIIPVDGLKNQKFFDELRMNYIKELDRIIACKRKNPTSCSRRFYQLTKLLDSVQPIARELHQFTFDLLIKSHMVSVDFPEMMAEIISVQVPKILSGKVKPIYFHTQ
# protocol-notes: Binding affinity to human AR
List of IC50 values.
quantity: IC50 (µM)

CC[C@@]12C[C@@](C)(O)[C@](O)(c3ccccc3)C[C@H]1CCc1cc(O)ccc12 = 0.3
Cc1noc(=O)c2ccc(NC(=O)C(O)(CC3(c4cc(F)ccc4Cl)CCC3)C(F)(F)F)cc12 (racemic) = 0.04

====

Sequence of the target: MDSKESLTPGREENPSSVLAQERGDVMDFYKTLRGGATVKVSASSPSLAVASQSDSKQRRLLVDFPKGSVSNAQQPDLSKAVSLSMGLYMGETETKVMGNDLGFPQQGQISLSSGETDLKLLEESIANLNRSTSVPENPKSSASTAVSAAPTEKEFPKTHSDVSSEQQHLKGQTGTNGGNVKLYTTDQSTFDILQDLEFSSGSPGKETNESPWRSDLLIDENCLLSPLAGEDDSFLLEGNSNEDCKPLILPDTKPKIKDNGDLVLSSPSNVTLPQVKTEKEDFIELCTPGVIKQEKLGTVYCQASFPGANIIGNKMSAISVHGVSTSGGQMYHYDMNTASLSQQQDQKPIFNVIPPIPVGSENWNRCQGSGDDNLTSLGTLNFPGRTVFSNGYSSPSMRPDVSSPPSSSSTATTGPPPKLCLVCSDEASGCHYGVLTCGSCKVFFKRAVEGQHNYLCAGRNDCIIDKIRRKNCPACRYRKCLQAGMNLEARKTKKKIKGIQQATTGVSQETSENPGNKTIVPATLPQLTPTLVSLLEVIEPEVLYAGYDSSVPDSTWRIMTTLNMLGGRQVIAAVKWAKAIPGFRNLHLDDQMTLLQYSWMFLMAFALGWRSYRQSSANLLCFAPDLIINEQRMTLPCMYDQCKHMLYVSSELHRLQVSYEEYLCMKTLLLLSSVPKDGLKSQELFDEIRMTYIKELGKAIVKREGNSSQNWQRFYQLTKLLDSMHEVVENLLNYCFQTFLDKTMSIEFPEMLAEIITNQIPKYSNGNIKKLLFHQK
quantity: IC50 (nM)

Cc1noc(=O)c2ccc(NC(=O)C(O)(CC3(c4cc(F)ccc4Cl)CCC3)C(F)(F)F)cc12 (racemic) = 1000
CC[C@@]12C[C@@](C)(O)[C@](O)(c3ccccc3)C[C@H]1C=Cc1cc(O)ccc12 = 400
CC[C@@]12C[C@@](C)(O)[C@](O)(c3ccccc3)C[C@H]1C=C(C)c1cc(O)ccc12 = 43
CC[C@@]12C[C@@](C)(O)[C@](O)(c3ccccc3)C[C@H]1CC(=O)c1cc(O)ccc12 = 72.5
CC[C@@]12C[C@@](C)(O)[C@](O)(c3ccccn3)C[C@H]1CCc1cc(O)ccc12 = 167
CC[C@@]12C[C@@](C)(O)[C@](O)(c3nccs3)C[C@H]1CCc1cc(O)ccc12 = 83
CC[C@@]12C[C@@](C)(O)[C@](O)(c3ccccc3)C[C@H]1CCc1cc(O)ccc12 = 109

====

List of IC50 values.
# tested-system: Glucocorticoid receptor (Homo sapiens)
quantity: IC50 (nM)

CC[C@@]12C[C@@](C)(O)[C@](O)(c3nccs3)C[C@H]1CCc1cc(O)ccc12 = 0.79
CC[C@@]12C[C@@](C)(O)[C@](O)(c3ccccc3)C[C@H]1CC(=O)c1cc(O)ccc12 = 2.5
CC[C@@]12C[C@@](C)(O)[C@](O)(c3cccnc3)C[C@H]1CCc1cc(O)ccc12 = 22
CC[C@@]12C[C@@](C)(O)[C@@](C)(O)C[C@H]1CCc1cc(O)ccc12 = 211
C=C[C@@]1(O)C[C@@]2(CC)c3ccc(O)cc3CC[C@@H]2C[C@@]1(O)c1ccccc1 = 5.2
CC#C[C@]1(O)C[C@H]2CCc3cc(O)ccc3[C@]2(CC)C[C@@]1(C)O = 1.5
CC[C@@]12C[C@@](C)(O)[C@](O)(c3ccc(C)cc3)C[C@H]1CCc1cc(O)ccc12 = 1.3
CC[C@@]12C[C@@](C)(O)[C@](O)(c3ccncc3)C[C@H]1CCc1cc(O)ccc12 = 9.1
CC[C@@]12C[C@@](C)(O)[C@](O)(c3ccccc3)C[C@H]1CCc1cc(O)ccc12 = 0.6

====

Sequence of the target: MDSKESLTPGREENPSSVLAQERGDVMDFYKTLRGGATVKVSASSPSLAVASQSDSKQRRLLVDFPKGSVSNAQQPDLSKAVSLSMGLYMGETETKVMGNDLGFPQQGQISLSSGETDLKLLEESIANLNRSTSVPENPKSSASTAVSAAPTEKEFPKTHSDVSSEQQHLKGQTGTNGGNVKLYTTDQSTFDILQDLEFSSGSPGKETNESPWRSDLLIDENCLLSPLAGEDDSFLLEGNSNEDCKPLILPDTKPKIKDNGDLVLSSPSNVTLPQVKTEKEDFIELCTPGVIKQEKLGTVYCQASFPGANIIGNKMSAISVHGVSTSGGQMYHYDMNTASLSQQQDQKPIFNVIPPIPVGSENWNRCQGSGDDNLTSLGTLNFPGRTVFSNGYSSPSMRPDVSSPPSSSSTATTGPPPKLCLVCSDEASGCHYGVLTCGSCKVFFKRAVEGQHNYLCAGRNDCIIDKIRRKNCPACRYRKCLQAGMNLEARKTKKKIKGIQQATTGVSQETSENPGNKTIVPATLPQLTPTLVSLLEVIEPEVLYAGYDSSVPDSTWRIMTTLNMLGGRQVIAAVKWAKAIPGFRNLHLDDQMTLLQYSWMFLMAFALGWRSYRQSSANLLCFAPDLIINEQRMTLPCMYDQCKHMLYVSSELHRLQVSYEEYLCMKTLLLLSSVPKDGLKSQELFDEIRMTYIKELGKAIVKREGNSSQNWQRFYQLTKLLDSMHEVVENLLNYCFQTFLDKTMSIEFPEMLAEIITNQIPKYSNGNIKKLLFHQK
List of log10(IC50) values.
quantity: log10(IC50) (log10 of the value in nM)

CC[C@@]12C[C@@](C)(O)[C@](O)(c3ccccn3)C[C@H]1CCc1cc(O)ccc12 = 0.18
C=CC[C@]1(O)C[C@H]2CCc3cc(O)ccc3[C@]2(CC)C[C@@]1(C)O = 1.55
C=C[C@]1(O)C[C@H]2CCc3cc(O)ccc3[C@]2(CC)C[C@@]1(C)O (mixture of isomers) = 1.08
CC[C@@]12C[C@@](C)(O)[C@](O)(CC)C[C@H]1CCc1cc(O)ccc12 (mixture of isomers) = 1.67
CCC[C@]1(O)C[C@H]2CCc3cc(O)ccc3[C@]2(CC)C[C@@]1(C)O = 1.30
CC[C@@]12C[C@@](C)(O)[C@](O)(c3ccccc3)C[C@H]1C[C@@H](O)c1cc(O)ccc12 = 1.90
CC[C@@]12C[C@@](C)(O)[C@](O)(c3ccccc3)C[C@H]1CC(=O)c1cc(OC(=O)c3ccccc3)ccc12 = 0.23
C/C=C/[C@]1(O)C[C@H]2CCc3cc(O)ccc3[C@]2(CC)C[C@@]1(C)O (mixture of isomers) = 0.32
CC[C@@]12C[C@@](C)(O)[C@](O)(c3ccccc3)C[C@H]1C=Cc1cc(O)ccc12 = -0.52
CC[C@@]12C[C@](O)(CC)[C@](O)(c3ccccc3)C[C@H]1CCc1cc(O)ccc12 = 0.08
CC[C@@]12C[C@](C)(O)[C@](O)(c3ccccc3)C[C@H]1CCc1cc(O)ccc12 = 1.58
Cc1noc(=O)c2ccc(NC(=O)C(O)(CC3(c4cc(F)ccc4Cl)CCC3)C(F)(F)F)cc12 (racemic) = -0.40
CC[C@@]12C[C@@](C)(O)[C@](O)(c3ccccc3)C[C@H]1C=C(C)c1cc(O)ccc12 = -0.17

====

# tested-system: Estrogen receptor beta (Homo sapiens, UniProt Q92731)
# Sequence (Q92731 whole entry): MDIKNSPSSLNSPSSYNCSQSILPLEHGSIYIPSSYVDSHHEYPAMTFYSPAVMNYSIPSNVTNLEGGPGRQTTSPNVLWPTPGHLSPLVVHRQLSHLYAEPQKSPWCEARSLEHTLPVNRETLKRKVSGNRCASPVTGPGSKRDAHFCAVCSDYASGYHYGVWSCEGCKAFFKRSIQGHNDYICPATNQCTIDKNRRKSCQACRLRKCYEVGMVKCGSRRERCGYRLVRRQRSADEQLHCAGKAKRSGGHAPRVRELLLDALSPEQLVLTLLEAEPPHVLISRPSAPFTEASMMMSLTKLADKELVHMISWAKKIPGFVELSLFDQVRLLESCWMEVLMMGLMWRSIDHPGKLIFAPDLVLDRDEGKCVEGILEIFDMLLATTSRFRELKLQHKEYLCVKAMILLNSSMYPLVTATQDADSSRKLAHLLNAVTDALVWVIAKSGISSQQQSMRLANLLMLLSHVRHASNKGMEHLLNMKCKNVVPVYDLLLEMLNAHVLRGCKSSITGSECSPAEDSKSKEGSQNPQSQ
pIC50: −log10 of the molar value.
quantity: pIC50

Cc1noc(=O)c2ccc(NC(=O)C(O)(CC3(c4cc(F)ccc4Cl)CCC3)C(F)(F)F)cc12 (racemic) = < 4.00

====

List of IC50 values.
# tested-system: Glucocorticoid receptor (Homo sapiens, UniProt P04150)
# protocol-notes: Transrepression activity at glucocorticoid receptor in human SW1353 cells assessed as repression of IL-1-induced MMP-13 production after 24 hrs by ELISA
# Format: cell-based
quantity: IC50 (nM)

CC[C@@]12C[C@@](C)(O)[C@](O)(c3ccccc3)C[C@H]1CCc1cc(O)ccc12 = 3.5
CC[C@@]12C[C@@](C)(O)[C@](O)(c3ccncc3)C[C@H]1CCc1cc(O)ccc12 = 100
CC[C@@]12C[C@@](C)(O)[C@](O)(c3ccc(C)cc3)C[C@H]1CCc1cc(O)ccc12 = 12
CC[C@@]12C[C@@](C)(O)[C@](O)(c3ccccc3)C[C@H]1CC(=O)c1cc(O)ccc12 = 5
CC[C@@]12C[C@@](C)(O)[C@](O)(c3cccnc3)C[C@H]1CCc1cc(O)ccc12 = 80
CC[C@@]12C[C@@](C)(O)[C@](O)(c3ccccn3)C[C@H]1CCc1cc(O)ccc12 = 1.5
Cc1noc(=O)c2ccc(NC(=O)C(O)(CC3(c4cc(F)ccc4Cl)CCC3)C(F)(F)F)cc12 (racemic) = 7.5
C=C[C@]1(O)C[C@H]2CCc3cc(O)ccc3[C@]2(CC)C[C@@]1(C)O (mixture of isomers) = 650
CC[C@@]12C[C@@](C)(O)[C@](O)(c3ccccc3)C[C@H]1CC(=O)c1cc(OC(=O)c3ccccc3)ccc12 = 28
CC[C@@]12C[C@@](C)(O)[C@](O)(c3ccccc3)C[C@H]1C=Cc1cc(O)ccc12 = 4
CC[C@@]12C[C@](O)(CC)[C@](O)(c3ccccc3)C[C@H]1CCc1cc(O)ccc12 = 6
CC#C[C@]1(O)C[C@H]2CCc3cc(O)ccc3[C@]2(CC)C[C@@]1(C)O = 1.9
CC[C@@]12C[C@@](C)(O)[C@](O)(c3ccccc3)C[C@H]1C=C(C)c1cc(O)ccc12 = 0.6
C/C=C/[C@]1(O)C[C@H]2CCc3cc(O)ccc3[C@]2(CC)C[C@@]1(C)O (mixture of isomers) = 6
CC[C@@]12C[C@@](C)(O)[C@](O)(c3nccs3)C[C@H]1CCc1cc(O)ccc12 = 1.5
